Test: Serum concentration after 28 days of oral dosing in male OCI-LY3 tumor-bearing NSG mice
Assay type: in vivo
Conditions: mouse, 30 mg/kg BID PO 28 days, 4 h post last dose, mean
Metric Name: concentration at 4 h (ng/mL)
Answers are plain numbers, in ng/mL.

Data request, read-out concentration at 4 h, for `O=C(Nc1ccnc(C(F)(F)F)c1)c1cnn(-c2cccc3c(=O)[nH]ccc23)c1C(F)(F)F`
10400

###

Assay: Single oral dose plasma PK in fasted dogs
Format: in vivo, dog
Details: female, beagle, dog, plasma, po, 280 mg/kg, 2F, 280 mg/kg PO, PEG400/PVP VA 90:10 solution, Study 7, Tlast = 96 hours
Metric Name: AUC(0-t) (µg·h/mL)
Answers are plain numbers, in µg·h/mL.

Data request, read-out AUC(0-t), for O=C(Nc1ccnc(C(F)(F)F)c1)c1cnn(-c2cccc3c(=O)[nH]ccc23)c1C(F)(F)F [Compound A]
1970

###

Assay: FIH study 67856633LYM1001 plasma pharmacokinetics
Format: in vivo, human
Settings: human, plasma, oral, 400 mg, Cycle 1 Day 1, cohort 8 × 50 mg > 6 × 50 mg (400 mg QD loading 14 days then 300 mg QD), Subject 100070 excluded; mean; read-out: Cmax
Metric Name: Cmax
Don't forget the unit after the value.

Data request, read-out Cmax, for O=C(Nc1ccnc(C(F)(F)F)c1)c1cnn(-c2cccc3c(=O)[nH]ccc23)c1C(F)(F)F [Compound A]
10300 ng/mL

###

Experiment: 14-day oral toxicity study toxicokinetics in Sprague-Dawley rats
Format: in vivo
Conditions: female, rat, plasma, 1000 mg/kg/day, female, Day 0, 1,000 mg/kg/day, mean
Metric Name: Cmax (µg/mL)
Give bare numbers, in µg/mL.

Data request, read-out Cmax, for O=C(Nc1ccnc(C(F)(F)F)c1)c1cnn(-c2cccc3c(=O)[nH]ccc23)c1C(F)(F)F [Compound A]
83.2

###

Experiment: FIH study 67856633LYM1001 plasma pharmacokinetics
Assay type: in vivo, human
Settings: human, plasma, oral, 600 mg, Cycle 1 Day 1, 200 mg capsule, cohort 3 × 200 mg; individual values, N = 2; read-out: Cmax
Metric Name: Cmax (ng/mL)
Give bare numbers, in ng/mL.

Data request, read-out Cmax, for `O=C(Nc1ccnc(C(F)(F)F)c1)c1cnn(-c2cccc3c(=O)[nH]ccc23)c1C(F)(F)F`
7790

###

Test: FIH study 67856633LYM1001 plasma pharmacokinetics
Format: in vivo, human
Conditions: human, plasma, oral, 100 mg, Cycle 2 Day 1, 50 mg capsule, cohort 2 × 50 mg; mean; read-out: Cmax
Metric Name: Cmax (ng/mL)
Give bare numbers, in ng/mL.

Data request, read-out Cmax, for `O=C(Nc1ccnc(C(F)(F)F)c1)c1cnn(-c2cccc3c(=O)[nH]ccc23)c1C(F)(F)F`
19900

###

Assay: Serum concentration after 28 days of oral dosing in male OCI-LY3 tumor-bearing NSG mice
Type: in vivo
Details: mouse, 3 mg/kg BID PO 28 days, 0.25 h post last dose, mean
Protocol: For study 3, animals were randomly assigned into treatment groups, when the OCI-LY3 mean tumor volume was 164 mm^3 (Day 32 post-tumor cell implantation). Treatment was initiated on the day of randomization (Day 32). After 28 days of treatment on Day 60, serum was collected at 2, 4, and 12 hours post last dose for the bid treated groups or 2, 4 and 24 hours post last dose for qd treated groups in cohorts of 5 mice. […]
Metric Name: concentration at 0.25 h (ng/mL)
One number for each entry, in ng/mL.

Data request, read-out concentration at 0.25 h, for `O=C(Nc1ccnc(C(F)(F)F)c1)c1cnn(-c2cccc3c(=O)[nH]ccc23)c1C(F)(F)F`
1020

###

Assay: Single oral dose plasma PK in fasted dogs
Type: in vivo, dog
Conditions: male, beagle, dog, plasma, po, 20 mg/kg, 3M, 20 mg/kg PO, 0.5% HPMC suspension, Study 4
Metric Name: Cmax (ng/mL)
One number for each entry, in ng/mL.

Data request, read-out Cmax, for `O=C(Nc1ccnc(C(F)(F)F)c1)c1cnn(-c2cccc3c(=O)[nH]ccc23)c1C(F)(F)F`
4080

###

Experiment: 14-day oral toxicity study toxicokinetics in Sprague-Dawley rats
Format: in vivo
Settings: male, rat, plasma, 30 mg/kg/day, male, Day 0, 30 mg/kg/day, mean, read-out: AUC0-24 h
Metric Name: AUC(0-t) (µg·h/mL)
Give bare numbers, in µg·h/mL.

Data request, read-out AUC(0-t), for O=C(Nc1ccnc(C(F)(F)F)c1)c1cnn(-c2cccc3c(=O)[nH]ccc23)c1C(F)(F)F [Compound A]
247

###

Test: Single IV dose plasma PK
Type: in vivo, mouse
Conditions: male, plasma; Mouse, NSG, 3M, 1 mg/kg IV in 70% PEG400; mean; read-out: Vdss
Experimental: Single intravenous (IV) dose PK was conducted in mice (two strains), rats, monkeys, and dogs at a dose of 1 mg/kg in 70% PEG400 (PEG400/water 70:30) by bolus injection. The time course for plasma sample was optimized to fully characterize the disposition profile in each species. PK analysis was by non-compartmental method.
Metric Name: Vd (L/kg)
Numbers only, in L/kg.

Data request, read-out Vd, for `O=C(Nc1ccnc(C(F)(F)F)c1)c1cnn(-c2cccc3c(=O)[nH]ccc23)c1C(F)(F)F`
1.23

###

Test: FIH study 67856633LYM1001 plasma pharmacokinetics
Type: in vivo, human
Details: human, plasma, oral, 200 mg, Cycle 1 Day 1, cohort 4 × 50 mg, with Subject 100032 data included; read-out: mean AUC
Metric Name: AUC (µg·h/mL)
Give bare numbers, in µg·h/mL.

Data request, read-out AUC, for O=C(Nc1ccnc(C(F)(F)F)c1)c1cnn(-c2cccc3c(=O)[nH]ccc23)c1C(F)(F)F [Compound A]
139

###

Test: FIH study 67856633LYM1001 plasma pharmacokinetics
Assay type: in vivo, human
Details: human, plasma, po, 50 mg, Cycle 2 Day 1, 50 mg capsule, oral daily administration; read-out: median Tmax
Metric Name: Tmax

Data request, read-out Tmax, for `O=C(Nc1ccnc(C(F)(F)F)c1)c1cnn(-c2cccc3c(=O)[nH]ccc23)c1C(F)(F)F`
2 to 4 h

###

Experiment: Serum and tumor levels after multiple oral doses in male OCI-LY3 tumor-bearing NSG mice
Type: in vivo
Conditions: male, NSG, mouse, tumor, po, once daily PO, dose not given (first group), Day 4, 24 h post dose; mean (SD); read-out: Tumor concentration
Metric Name: concentration at 24 h (ng/g)
Answers are plain numbers, in ng/g.

Data request, read-out concentration at 24 h, for `O=C(Nc1ccnc(C(F)(F)F)c1)c1cnn(-c2cccc3c(=O)[nH]ccc23)c1C(F)(F)F`
2460

###

Test: Single IV dose plasma PK
Format: in vivo, rat
Conditions: male, Sprague-Dawley (S-D), rat, plasma, iv, 1 mg/kg, S-D, 6M, 1 mg/kg IV, dosed as the -ZAF salt
Metric Name: half-life (h)
One number for each entry, in h.

Data request, read-out half-life, for `O=C(Nc1ccnc(C(F)(F)F)c1)c1cnn(-c2cccc3c(=O)[nH]ccc23)c1C(F)(F)F`
5.33

###

Assay: Serum concentration after 28 days of oral dosing in male OCI-LY3 tumor-bearing NSG mice
Assay type: in vivo
Details: mouse, 1 mg/kg BID PO 28 days, 12 h post last dose, mean
Experimental: For study 3, animals were randomly assigned into treatment groups, when the OCI-LY3 mean tumor volume was 164 mm^3 (Day 32 post-tumor cell implantation). Treatment was initiated on the day of randomization (Day 32). After 28 days of treatment on Day 60, serum was collected at 2, 4, and 12 hours post last dose for the bid treated groups or 2, 4 and 24 hours post last dose for qd treated groups in cohorts of 5 mice. […]
Metric Name: concentration at 12 h
Don't forget the unit after the value.

Data request, read-out concentration at 12 h, for O=C(Nc1ccnc(C(F)(F)F)c1)c1cnn(-c2cccc3c(=O)[nH]ccc23)c1C(F)(F)F [Compound A]
307 ng/mL

###

Assay: Preliminary food effect assessment at steady state
Assay type: in vivo, human
Conditions: human, plasma, oral, 100 mg, 2 × 50 mg, fed condition, steady state; individual values, N = 2; read-out: Tmax
Metric Name: Tmax (h)
Numbers only, in h.

Data request, read-out Tmax, for `O=C(Nc1ccnc(C(F)(F)F)c1)c1cnn(-c2cccc3c(=O)[nH]ccc23)c1C(F)(F)F`
6

###

Assay: Preliminary food effect assessment at steady state
Format: in vivo, human
Details: human, plasma, oral, 100 mg, 2 × 50 mg, fasted condition, steady state; individual values, N = 2; read-out: Cmax
Metric Name: Cmax (ng/mL)
Answers are plain numbers, in ng/mL.

Data request, read-out Cmax, for `O=C(Nc1ccnc(C(F)(F)F)c1)c1cnn(-c2cccc3c(=O)[nH]ccc23)c1C(F)(F)F`
15300

###

Assay: FIH study 67856633LYM1001 plasma pharmacokinetics
Assay type: in vivo, human
Conditions: human, plasma, oral, 400 mg, Cycle 1 Day 1, cohort 8 × 50 mg > 6 × 50 mg, with Subject 100070 data included; read-out: mean AUC
Metric Name: AUC (µg·h/mL)
Answers are plain numbers, in µg·h/mL.

Data request, read-out AUC, for `O=C(Nc1ccnc(C(F)(F)F)c1)c1cnn(-c2cccc3c(=O)[nH]ccc23)c1C(F)(F)F`
237

Attribution: patent US20240299376A1
